Provide the reported yeast fitness of each item.
B1: tRNA (parent)
chain: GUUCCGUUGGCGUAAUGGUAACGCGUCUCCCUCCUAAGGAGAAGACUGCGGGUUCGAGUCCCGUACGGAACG

Variants of: B1
Experiment: yeast fitness relative to wild type (ratio to wild type); higher = fitter; tRNA-Arg(CCU), competitive growth, 37 C, YPD
Variants at the floor of the assay were thinned out.
Please reply with the value in numeric form only.

Value of yeast fitness reported for the variant C30U C62G is 0.855

Value of yeast fitness reported for the variant A20G A65U G68C is 0.556

Value of yeast fitness reported for the variant U47C C49U G68C is 0.582

Value of yeast fitness reported for the variant C4U G17A is 0.973

Value of yeast fitness reported for the variant C22G G44C A70C is 0.553

Value of yeast fitness reported for the variant G38C G48C G63C is 0.574

Value of yeast fitness reported for the variant U53A G67A is 0.686
